Reference source: patent US10717716B2

# study.target: human recombinant HDAC6 (Homo sapiens, UniProt Q9UBN7)
# Construct: purchased Calbiochem 382180
# test: HDAC6 enzyme activity inhibition assay (HDAC Fluorimetric Drug Discovery Kit)
# Assay type: biochemical
# measurement.conditions: HDAC6 over HDAC1
quantity.kind: HDAC6 selectivity (fold)

Solved entries (count: 3):
compound	study.target	HDAC6 selectivity (fold)
COc1ccc(N(Cc2ccc(-c3nnc(C(F)F)o3)cn2)C(=O)N2CCN(C)CC2)cc1 [Compound 21623]	human recombinant HDAC6 (Homo sapiens, UniProt Q9UBN7)	290
O=C(N1CCN(C2COC2)CC1)N(Cc1ccc(-c2nnc(C(F)F)o2)cn1)c1cccc(F)c1 [Compound 21938]	human recombinant HDAC6 (Homo sapiens, UniProt Q9UBN7)	122
CCN1CCN(C(=O)N(Cc2ccc(-c3nnc(C(F)F)o3)cc2F)c2cccc(Cl)c2F)CC1 [Compound 21646]	human recombinant HDAC6 (Homo sapiens, UniProt Q9UBN7)	317

(I) CCN1CCN(C(=O)N(Cc2ccc(-c3nnc(C(F)(F)F)o3)cc2F)c2ccc(F)c(Cl)c2)CC1 [Compound 21592]
(II) O=C(N1CCOCC1)N(Cc1ccc(-c2nnc(C(F)(F)F)o2)cn1)c1ccc(F)cc1F [Compound 21857]
(III) CCc1ccc(N(Cc2ccc(-c3nnc(C(F)(F)F)o3)cc2F)C(=O)N2CCS(=O)(=O)CC2)cc1 [Compound 21511]
With regard to HDAC6 selectivity (fold), arrange the entries in ascending order, please. // list labels; follow requested order
III, I, II

(a) CC(C)n1ncc2ccc(N(Cc3ccc(-c4nnc(C(F)F)o4)cc3F)C(=O)N3CCS(=O)(=O)CC3)cc21 [Compound 21812]
(b) CN(C)[C@H]1CCN(C(=O)N(Cc2ccc(-c3nnc(C(F)F)o3)cc2F)c2ccc(F)cc2Cl)C1 [Compound 21651]
In the pair a and b , the larger recorded HDAC6 selectivity (fold) belongs to which? Lab log: write the label of the selected item as the result.
b

(P) O=C(CN1CCN(CCNC(=O)N(Cc2ccc(-c3nnc(C(F)F)o3)cc2F)c2ccccc2)CC1)N1CCOCC1 [Compound 21984]
(Q) CC(C)(C)OC(=O)N1CCN(C(=O)N(Cc2ccc(-c3nnc(C(F)(F)F)o3)cc2)c2ccccc2)CC1 [Compound 21352]
(R) O=C(N1CCS(=O)(=O)CC1)N(Cc1ccc(-c2nnc(C(F)F)o2)cn1)c1ccccc1 [Compound 21373]
(S) O=C(N1CCOCC1)N(Cc1ccc(-c2nnc(C(F)(F)F)o2)cc1)c1ccc(C(F)(F)F)cc1 [Compound 21406]
Order field: HDAC6 selectivity (fold) | Direction: descending (largest first) // list labels; follow requested order
R, P, S, Q
(R: 500 fold, P: 107 fold, S: 16 fold, Q: 9 fold)

(a) O=C(N1CCOCC1)N(Cc1ccc(-c2nnc(C(F)F)o2)cn1)c1cccc(Cl)c1 [Compound 21851]
(b) CCN1CCN(C(=O)N(Cc2ccc(-c3nnc(C(F)(F)F)o3)cc2F)c2cccc(Cl)c2)CC1 [Compound 21861]
Returns: the label, a or b , whose recorded HDAC6 selectivity (fold) is the lower number. Lab log: write the label of the selected item as the result.
b
(b: 40 fold, a: 407 fold)

###

# study.target: human recombinant HDAC6 (Homo sapiens)
# Construct: purchased Calbiochem 382180
# test: HDAC6 enzyme activity inhibition assay (HDAC Fluorimetric Drug Discovery Kit)
# Type: biochemical
# measurement.conditions: HDAC6 over HDAC1
quantity.kind: HDAC6 selectivity (fold)

O=C(N1CCN(C2COC2)CC1)N(Cc1ccc(-c2nnc(C(F)F)o2)cn1)c1ccc(Cl)cc1 112
O=C(N1CCS(=O)(=O)CC1)N(Cc1ccc(-c2nnc(C(F)(F)F)o2)cc1)c1cccc(Cl)c1 137

(1) C[C@@H]1CN(C(=O)N(Cc2ccc(-c3nnc(C(F)(F)F)o3)cc2)c2ccccc2)C[C@H](C)O1
(2) O=C(NCCN1CCCCC1)N(Cc1ccc(-c2nnc(C(F)F)o2)cc1F)c1ccccc1
Returns: the label, 1 or 2 , whose recorded HDAC6 selectivity (fold) is the lower number. Lab log: write the label of the selected item as the result.
1
(1: 61 fold, 2: 116 fold)

###

# study.target: human recombinant HDAC6 (Homo sapiens, UniProt Q9UBN7)
# Construct: purchased Calbiochem 382180
# test: HDAC6 enzyme activity inhibition assay (HDAC Fluorimetric Drug Discovery Kit)
# Type: biochemical
# measurement.conditions: HDAC6 over HDAC1
quantity.kind: HDAC6 selectivity (fold)

Solved entries (count: 8):
CCN(Cc1ccc(-c2nnc(C(F)(F)F)o2)cc1)C(=O)N1CCOCC1 13
Cc1ccc(N(Cc2ccc(-c3nnc(C(F)(F)F)o3)cc2)C(=O)N2CCS(=O)(=O)CC2)cc1 33
CN1CCN(C(=O)N(Cc2ccc(-c3nnc(C(F)F)o3)cc2F)c2cccc(Br)c2)CC1 333
O=C(N1CCCCC1)N(Cc1ccc(-c2nnc(C(F)(F)F)o2)cc1)c1ccccc1 38
O=C(N1CCOCC1)N(Cc1ccc(-c2nnc(C(F)(F)F)o2)cc1F)c1ccc(F)cc1 135
O=C(N1CCOCC1)N(Cc1ccc(-c2nnc(C(F)(F)F)o2)cc1F)c1cccc(Cl)c1 46
CCN1CCN(C(=O)N(Cc2ccc(-c3nnc(C(F)(F)F)o3)cc2F)c2cccc(OC)c2)CC1 38
O=C(NCCN1CCN(Cc2ccccc2)CC1)N(Cc1ccc(-c2nnc(C(F)F)o2)cc1F)c1ccccc1 51

(P) O=C(N1CC2(CCNCC2)C1)N(Cc1ccc(-c2nnc(C(F)F)o2)cc1F)c1ccccc1
(Q) CCN1CCN(C(=O)N(Cc2ccc(-c3nnc(C(F)(F)F)o3)cc2)c2cccc(F)c2)CC1
(R) O=C(N1CCOCC1)N(Cc1ccc(-c2nnc(C(F)(F)F)o2)cc1)Cc1cccnc1
With regard to HDAC6 selectivity (fold), arrange the entries in ascending order, please. // list labels; follow requested order
R, Q, P
(R: 2 fold, Q: 174 fold, P: 294 fold)

###

# study.target: human recombinant HDAC6 (Homo sapiens)
# Construct: purchased Calbiochem 382180
# Sequence (Q9UBN7 1-1215): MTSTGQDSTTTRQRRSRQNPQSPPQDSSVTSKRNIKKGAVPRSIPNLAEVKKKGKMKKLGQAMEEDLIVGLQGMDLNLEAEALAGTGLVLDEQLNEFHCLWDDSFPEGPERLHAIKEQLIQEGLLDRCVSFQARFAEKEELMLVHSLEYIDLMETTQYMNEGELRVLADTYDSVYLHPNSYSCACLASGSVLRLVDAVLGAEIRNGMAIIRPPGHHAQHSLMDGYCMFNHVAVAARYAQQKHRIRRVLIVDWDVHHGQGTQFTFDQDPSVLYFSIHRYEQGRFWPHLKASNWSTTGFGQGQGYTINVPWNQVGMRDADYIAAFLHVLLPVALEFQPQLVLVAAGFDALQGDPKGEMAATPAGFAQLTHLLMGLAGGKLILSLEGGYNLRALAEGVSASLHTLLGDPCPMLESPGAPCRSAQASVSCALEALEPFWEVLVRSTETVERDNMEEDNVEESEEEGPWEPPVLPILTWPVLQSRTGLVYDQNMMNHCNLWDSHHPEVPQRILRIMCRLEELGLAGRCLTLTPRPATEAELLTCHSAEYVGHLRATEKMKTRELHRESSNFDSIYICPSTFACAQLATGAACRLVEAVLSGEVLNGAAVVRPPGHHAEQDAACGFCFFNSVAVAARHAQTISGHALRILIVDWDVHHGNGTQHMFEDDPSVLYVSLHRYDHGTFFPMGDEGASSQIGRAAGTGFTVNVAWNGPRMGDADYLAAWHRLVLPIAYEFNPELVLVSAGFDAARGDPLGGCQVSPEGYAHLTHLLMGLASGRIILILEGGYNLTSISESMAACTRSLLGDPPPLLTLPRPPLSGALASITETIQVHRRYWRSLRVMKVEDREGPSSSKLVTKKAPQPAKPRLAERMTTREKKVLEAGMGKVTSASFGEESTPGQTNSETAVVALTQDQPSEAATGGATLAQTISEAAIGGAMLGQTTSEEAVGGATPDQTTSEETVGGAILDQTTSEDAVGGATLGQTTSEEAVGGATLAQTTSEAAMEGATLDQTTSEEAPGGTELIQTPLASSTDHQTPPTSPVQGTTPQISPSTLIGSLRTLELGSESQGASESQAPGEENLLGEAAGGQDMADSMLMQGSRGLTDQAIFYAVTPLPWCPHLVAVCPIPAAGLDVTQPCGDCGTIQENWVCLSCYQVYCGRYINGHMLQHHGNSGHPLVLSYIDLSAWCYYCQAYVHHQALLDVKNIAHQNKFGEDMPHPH
# test: HDAC6 enzyme activity inhibition assay (HDAC Fluorimetric Drug Discovery Kit)
# Assay type: biochemical
# measurement.conditions: HDAC6 over HDAC1
quantity.kind: HDAC6 selectivity (fold)

Solved entries (count: 3):
O=C(N1CCN(C2COC2)CC1)N(Cc1ccc(-c2nnc(C(F)F)o2)cc1)c1ccc(F)cc1 62
CCN1CCN(C(=O)N(Cc2ccc(-c3nnc(C(F)(F)F)o3)cn2)c2ccc(Cl)cc2)CC1 190
O=C(N1CCN(C2COC2)CC1)N(Cc1ccc(-c2nnc(C(F)F)o2)cc1)c1cccc(F)c1 91

(P) CC(C)N(Cc1ccc(-c2nnc(C(F)(F)F)o2)cc1)C(=O)N1CCS(=O)(=O)CC1
(Q) O=C(N1CCS(=O)(=O)CC1)N(Cc1ccc(-c2nnc(C(F)F)o2)cc1)c1ccc(-c2ccc3c(c2)OCO3)cc1
Returns: the label, P or Q , whose recorded HDAC6 selectivity (fold) is the lower number. Lab log: write the label of the selected item as the result.
P
(P: 11 fold, Q: 89 fold)

(P) CCN1CCN(Cc2ccc(N(Cc3ccc(-c4nnc(C(F)F)o4)cc3F)C(=O)N3CCS(=O)(=O)CC3)cc2)CC1
(Q) CN1CCN(c2ccc(N(Cc3ccc(-c4nnc(C(F)F)o4)cn3)C(=O)N3CCS(=O)(=O)CC3)cc2)CC1
Returns: the label, P or Q , whose recorded HDAC6 selectivity (fold) is the lower number. Lab log: write the label of the selected item as the result.
Q
